// values below are reported log10(IC50)
Target: human cloned 5-HT2C receptor, expressed in CHO cells (Homo sapiens, UniProt P28335)
Construct: expressed in transfected cells; host or cells: CHO cells
Sequence (P28335 33-458): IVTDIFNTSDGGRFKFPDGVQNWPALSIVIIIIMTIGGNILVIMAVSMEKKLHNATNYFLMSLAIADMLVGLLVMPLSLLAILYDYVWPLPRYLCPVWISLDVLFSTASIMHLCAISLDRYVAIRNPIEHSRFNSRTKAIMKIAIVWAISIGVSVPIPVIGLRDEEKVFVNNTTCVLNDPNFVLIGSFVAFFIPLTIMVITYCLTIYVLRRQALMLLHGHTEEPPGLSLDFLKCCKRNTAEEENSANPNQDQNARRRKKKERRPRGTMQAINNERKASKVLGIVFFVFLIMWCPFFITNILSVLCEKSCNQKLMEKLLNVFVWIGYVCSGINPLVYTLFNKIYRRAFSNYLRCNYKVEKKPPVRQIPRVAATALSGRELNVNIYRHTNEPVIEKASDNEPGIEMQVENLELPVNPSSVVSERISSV
Test: In vitro radioligand binding affinity for 5-HT2C receptor ([3H]mesulergine)
Conditions: human cloned 5-HT2C receptor in CHO cells, [3H]mesulergine; read-out: h-5HT2C (converted)
Values are log10 of IC50 in µM.

Look over these answered cases.
CN(C)C[C@H]1C[C@@H]2c3ccccc3Cc3ccc(F)cc3[C@H]2N1 [37a] = -1.30
COCC(=O)N1[C@@H](CN(C)C)C[C@@H]2c3ccccc3Cc3ccc(F)cc3[C@H]21 = -0.37
CN1C[C@@H]2C[C@@H]3c4ccccc4Cc4ccc(F)cc4[C@H]3N2C1 = -0.82
CN(C)C[C@@H]1C[C@@H]2c3ccccc3Cc3ccc(F)cc3[C@H]2[S@+]1[O-] = 0.35
COC(=O)N1[C@@H](CN(C)C)CC[C@@H]2c3ccccc3Cc3ccc(F)cc3[C@H]21 = 0.35
CN(C)C[C@H]1C[C@@H]2c3ccccc3Cc3ccc(F)cc3[C@H]2N1CCO = -1.33
CN(C)C[C@H]1C[C@@H]2c3ccccc3Cc3ccc(F)cc3[C@H]2N1C = -2.27
Fc1ccc2c(c1)[C@H]1N[C@@H](CN3CCOCC3)C[C@@H]1c1ccccc1C2 = -0.26
COCCN1[C@@H](CN(C)C)C[C@@H]2c3ccccc3Cc3ccc(F)cc3[C@H]21 = -0.58

Let's switch to this molecule now.
Quick one: log10(IC50) of CN(C)C[C@H]1C[C@@H]2c3ccccc3Oc3ccc(F)cc3[C@H]2N1 ?
-0.30
